src = patent US20160220569A1

Experiment summary: 14-day oral gavage toxicokinetic study in rats
Format: in vivo
Run parameters: female, rat, plasma, po, 15 mg/kg, Individual Compound 1 Plasma Concentration, rats, daily oral 15 mg/kg, Day 1, Female, 12 h

Compound: CN1CCN(c2ccc(Nc3ncc4cc5n(c4n3)C3(CCCCC3)CNC5=O)nc2)CC1 [Compound 1]
concentration at 12 h / ng/mL: 1010

---

Experiment summary: 14-day oral gavage toxicokinetic study in rats
Format: in vivo
Run parameters: male, rat, plasma, po, 30 mg/kg, Individual Compound 1 Plasma Concentration, rats, daily oral 30 mg/kg, Day 14, Male, […]
Readout name: concentration at […] (ng/mL)

Compound: CN1CCN(c2ccc(Nc3ncc4cc5n(c4n3)C3(CCCCC3)CNC5=O)nc2)CC1
U: ng/mL
Numeric readout: 197

---

Experiment summary: 14-day oral gavage toxicokinetic study in rats
Type: in vivo
Run parameters: female, rat, plasma, po, 5 mg/kg, oral 5 mg/kg, Study Day 1, Female; read-out: t½ (converted)
Experimental: Plasma was obtained from blood samples collected from rats in a composite sampling scheme, with 3 samples collected per sex, per dose, at each target collection time, as illustrated in Table 21 to Table 25. […] The following parameters were determined: […] A value of 0 ng/mL was assigned to all values below the lower limit of quantitation (BLQ, <10.0 ng/mL). […] CL: Clearance (L/h/kg), calculated as the dose divided by AUC(0-t). […] Cmax/Dose: Normalized Cmax, calculated as Cmax divided by total dose. […]
Readout name: half-life (h)

Compound: CN1CCN(c2ccc(Nc3ncc4cc5n(c4n3)C3(CCCCC3)CNC5=O)nc2)CC1
Readout name: half-life
Numeric readout: 3.82

---

Experiment summary: Topotecan PK following Compound 1 infusion
Assay type: in vivo, human
Run parameters: human, plasma, intravenous, Topotecan 1.25 mg/m^2 (Cohort 2) with Compound 1 200 mg/m^2, Day 4, Median; read-out: Cmax
Readout name: Cmax (ng/mL)

Compound: CC[C@@]1(O)C(=O)OCc2c1cc1n(c2=O)Cc2cc3c(CN(C)C)c(O)ccc3nc2-1.Cl [topotecan]
Numeric readout: 41.8

---

Experiment summary: 14-day oral gavage toxicokinetic study in rats
Assay type: in vivo
Run parameters: female, rat, plasma, po, 30 mg/kg, Individual Compound 1 Plasma Concentration, rats, daily oral 30 mg/kg, Day 14, Female, 12 h

Compound: CN1CCN(c2ccc(Nc3ncc4cc5n(c4n3)C3(CCCCC3)CNC5=O)nc2)CC1 [Compound 1]
U: ng/mL
concentration at 12 h: 2290

---

Experiment summary: Topotecan PK following Compound 1 infusion
Assay type: in vivo, human
Run parameters: human, plasma, intravenous, Topotecan 1.25 mg/m^2 (Cohort 2) with Compound 1 200 mg/m^2, Day 1, Mean; read-out: AUCx5 (converted)

Molecule: CC[C@@]1(O)C(=O)OCc2c1cc1n(c2=O)Cc2cc3c(CN(C)C)c(O)ccc3nc2-1.Cl [topotecan]
AUC [µM·h]: 1.97

---

Experiment summary: 14-day oral gavage toxicokinetic study in rats
Type: in vivo
Run parameters: both sexes, rat, plasma, po, 5 mg/kg, Mean Compound 1 Plasma Concentration, rats, oral 5 mg/kg, Day 1, 0.5 h, Overall
Readout name: concentration at 0.5 h (ng/mL)

Compound: CN1CCN(c2ccc(Nc3ncc4cc5n(c4n3)C3(CCCCC3)CNC5=O)nc2)CC1
Readout name: concentration at 0.5 h
Numeric readout: 252

---

Experiment summary: Single escalating dose IV infusion pharmacokinetics in healthy volunteers (noncompartmental)
Assay type: in vivo, human
Run parameters: both sexes, human, plasma, iv, 48 mg/m^2, Compound 1 Concentration, Cohort 4, 48 mg/m^2 IV; Time 12.50 h; r7-9=Subjects 1-3,r11=Mean,r13=Min,r14=Median,r15=Max,r17=Geometric Mean
Experimental: Forty-five subjects have enrolled in the study. Analysis of plasma concentration versus time data for calculation of standard pharmacokinetic (PK) parameters following intravenous infusion administration was conducted using Phoenix WinNonlin version 6.3 using a nominal infusion duration and scheduled blood sampling times. Random subject numbers were assigned by the bioanalytical laboratory to retain the blind. […]
Readout name: concentration at 12.5 h (ng/mL)

Compound: CN1CCN(c2ccc(Nc3ncc4cc5n(c4n3)C3(CCCCC3)CNC5=O)nc2)CC1
Readout name: concentration at 12.5 h
Numeric readout: 8.36

---

Experiment summary: Compound 1 PK dosed Days 1-3 with etoposide and carboplatin
Assay type: in vivo, human
Run parameters: human, plasma, intravenous, 200 mg/m2, 200 mg/m^2 with etoposide and carboplatin; Day 1; mean; read-out: AUCinf averaged

Compound: CN1CCN(c2ccc(Nc3ncc4cc5n(c4n3)C3(CCCCC3)CNC5=O)nc2)CC1
AUC(0-inf) [ng·h/mL]: 2530

---

Experiment summary: 14-day oral gavage toxicokinetic study in rats
Type: in vivo
Run parameters: both sexes, rat, plasma, po, 5 mg/kg, Mean Compound 1 Plasma Concentration, rats, oral 5 mg/kg, Day 14, 1 h, Overall

Molecule: CN1CCN(c2ccc(Nc3ncc4cc5n(c4n3)C3(CCCCC3)CNC5=O)nc2)CC1 [Compound 1]
concentration at 1 h / ng/mL: 389

---

Experiment summary: 14-day oral gavage toxicokinetic study in rats
Type: in vivo
Run parameters: male, rat, plasma, po, 2 mg/kg, Mean Compound 1 Plasma Concentration, rats, oral 2 mg/kg, Day 14, 2 h, Male

Compound: CN1CCN(c2ccc(Nc3ncc4cc5n(c4n3)C3(CCCCC3)CNC5=O)nc2)CC1 [Compound 1]
U: ng/mL
concentration at 2 h: 94.9

---

Experiment summary: Compound 1 PK dosed Days 1-5 with topotecan
Assay type: in vivo, human
Run parameters: human, plasma, intravenous, 200 mg/m^2 with Topotecan 0.75 mg/m^2 (Cohort 3), Day 4, Median; read-out: t½ (converted)
Procedure: Analysis of plasma concentration versus time data for calculation of standard pharmacokinetic (PK) parameters following intravenous infusion administration was conducted using Phoenix WinNonlin version 6.3 using a nominal infusion duration and scheduled blood sampling times.
Readout name: half-life (h)

Compound: CN1CCN(c2ccc(Nc3ncc4cc5n(c4n3)C3(CCCCC3)CNC5=O)nc2)CC1 [Compound 1]
Readout name: half-life
U: h
Numeric readout: 8.82

---

Experiment summary: 14-day oral gavage toxicokinetic study in rats
Type: in vivo
Run parameters: male, rat, plasma, po, 15 mg/kg, oral 15 mg/kg, Study Day 1, Male
Readout name: AUC(0-t) (ng·h/mL)

Molecule: CN1CCN(c2ccc(Nc3ncc4cc5n(c4n3)C3(CCCCC3)CNC5=O)nc2)CC1 [Compound 1]
Readout name: AUC(0-t)
Numeric readout: 15500

---

Experiment summary: Topotecan PK following Compound 1 infusion
Type: in vivo, human
Run parameters: human, plasma, intravenous, Topotecan 0.75 mg/m^2 (Cohort 3) with Compound 1 200 mg/m^2, Day 4, Mean; read-out: t½ (converted)
Readout name: half-life (min)

Compound: CC[C@@]1(O)C(=O)OCc2c1cc1n(c2=O)Cc2cc3c(CN(C)C)c(O)ccc3nc2-1.Cl [topotecan]
Numeric readout: 287

---

Experiment summary: 14-day oral gavage toxicokinetic study in rats
Format: in vivo
Run parameters: male, rat, plasma, po, 30 mg/kg, oral 30 mg/kg, Study Day 14, Male
Readout name: Tmax (h)

Compound: CN1CCN(c2ccc(Nc3ncc4cc5n(c4n3)C3(CCCCC3)CNC5=O)nc2)CC1
U: h
Numeric readout: 4

---

Experiment summary: Compound 1 PK dosed Days 1-3 with etoposide and carboplatin
Format: in vivo, human
Run parameters: human, plasma, intravenous, 200 mg/m2, 200 mg/m^2 with Etoposide and Carboplatin, Day 1, Median; read-out: AUCinf
Readout name: AUC(0-inf) (ng·h/mL)

Compound: CN1CCN(c2ccc(Nc3ncc4cc5n(c4n3)C3(CCCCC3)CNC5=O)nc2)CC1 [Compound 1]
Numeric readout: 2490

---

Experiment summary: 14-day oral gavage toxicokinetic study in rats
Type: in vivo
Run parameters: both sexes, rat, plasma, po, 15 mg/kg, Mean Compound 1 Plasma Concentration, rats, oral 15 mg/kg, Day 14, 1 h, Overall

Molecule: CN1CCN(c2ccc(Nc3ncc4cc5n(c4n3)C3(CCCCC3)CNC5=O)nc2)CC1 [Compound 1]
U: ng/mL
concentration at 1 h: 1150

---

Experiment summary: Nonclinical IV and oral pharmacokinetics in dogs
Type: in vivo
Run parameters: dog, plasma, oral 90 mg/kg

Compound: CN1CCN(c2ccc(Nc3ncc4cc5n(c4n3)C3(CCCCC3)CNC5=O)nc2)CC1
bioavailability / %: 17.1

---

Experiment summary: 14-day oral gavage toxicokinetic study in rats
Assay type: in vivo
Run parameters: male, rat, plasma, po, 30 mg/kg, Mean Compound 1 Plasma Concentration, rats, oral 30 mg/kg, Day 14, 4 h, Male
Readout name: concentration at 4 h (ng/mL)

Compound: CN1CCN(c2ccc(Nc3ncc4cc5n(c4n3)C3(CCCCC3)CNC5=O)nc2)CC1
U: ng/mL
Numeric readout: 2030
